Target: T1, Latent Activin A (human, UniProt P08476 21-426, limits assumed)
T1 construct: also called INHBA latent
T1 sequence: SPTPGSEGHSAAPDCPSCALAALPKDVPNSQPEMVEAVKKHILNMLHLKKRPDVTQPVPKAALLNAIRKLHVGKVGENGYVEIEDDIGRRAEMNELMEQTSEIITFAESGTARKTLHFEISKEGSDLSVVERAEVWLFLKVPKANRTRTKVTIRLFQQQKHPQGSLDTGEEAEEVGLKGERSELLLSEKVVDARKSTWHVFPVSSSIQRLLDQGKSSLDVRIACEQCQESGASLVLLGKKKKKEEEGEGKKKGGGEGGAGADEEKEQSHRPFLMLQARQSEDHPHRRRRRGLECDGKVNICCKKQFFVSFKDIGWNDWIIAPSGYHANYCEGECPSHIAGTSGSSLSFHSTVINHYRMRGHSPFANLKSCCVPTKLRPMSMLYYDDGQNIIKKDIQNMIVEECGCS
Experiment: ELISA, coated antigen, OD450
Procedure: Antibodies were re-expressed in 40 mL cultures of Expi293 cells and purified using protein G magnetic sepharose beads (Cytiva, Marlborough, MA) to provide larger quantities for secondary screening. Secondary screening included dose responses in both functional assays described above (SMAD nuclear localization and fibroblast activations assays) as well as in binding assays to the same antigens listed in Table 3. […]
Range-based classes on measured fold-change of OD 450 over negative control (BSA): band A = under 4 fold, band B = from 4 fold up to 7 fold, band C = 7 fold and over

binder	cat
AB426 (antibody, IgG1, V domains shown) VH: EVQLVESGGGLVQPGGSLRLSCAASGFTFSDHHMSWVRQAPGKGLELVASISPSGDFTYYPDSVKGRFTISRDNAKNSLYLQMNSLRAEDTAVYYCARDVSPVYYWGQGALVTVSS VL: DIVMTQSPLSLPVTPGEPASISCRSSQSLLHWYLQKPGQSPQLLIYMGSQRAAGVPDRFSGSGSGTDFTLKISRVEAEDVGVYYCQSGVTFGGGTKVEIK	band B
AB366 (antibody, IgG1, V domains shown) VH: QVQLQESGPGLVKPSQTLSLTCTVSGYSLTDARIGVNWIRQPPGKGLEWIGYINPSGRTDYNPSLKSRVTMSVDTSKNQFSLKVNSVTAADTAVYYCARAGYPDVWGKGTTVTVSS VL: DIQMTQSPSSVSASVGDRVTITCRASQTISRSLAWYQQKPGKAPKLLIYDASSLAGGVPSRFSGSGSGTDFTLTISSLQPEDFANYYCQQYSSYPSLFGGGTKVEIK	band C
AB349 (antibody, IgG1, V domains shown) VH: QVQLQESGPGLVKPSQTLSLTCTVSGVSLSNARLGVNWIRQPPGKGLEWIGYGSVTGSTDYNPSLKSRVTMSVDTSKNQFSLKVNSVTAADTAVYYCTTSYLVDTAMVTRWGQGTLVTVSS VL: EIVMTQSPATLSLSPGERATLSCRASQRIGSDLAWYQQKPGQAPRLLIYSASSRAPGIPARFSGSGSGTDFTLTISSLEPEDFAVYYCSTMAIPFGGGTKVEIK	band B
AB350 (antibody, IgG1, V domains shown) VH: QVQLQESGPGLVKPSQTLSLTCTVSGVSLSDARMGVNWIRQPPGKGLEWIGYVSTTGTTDYNPSLKSRVTMSVDTSKNQFSLKVNSVTAADTAVYYCARAGYPDVWGKGTLVTVSS VL: EIVMTQSPATLSLSPGERATLSCRASESVRSNLAWYQQKPGQAPRLLIYGASNRASGIPARFSGSGSGTDFTLTISSLEPEDFAVYYCQQYHTWPPWAFGGGTKVEIK	band C
AB344 (antibody, IgG1, V domains shown) VH: EVQLVESGGGLVQPGGSLRLSCAASGYTFSNYGMSWVRQAPGKGLELVASISKSGSSIYYPDSVKGRFTISRDNAKNSLYLQMNSLRAEDTAVYYCARLPRLAWNYYYGMDVWGQGTTVTVSS VL: DIVMTQSPLSLPVTPGEPASISCRSSRSLVHGSGDNYLHWYLQKPGQSPQLLIYMASNRAPGVPDRFSGSGSGTDFTLKISRVEAEDVGVYYCVQTLQTPSTFGGGTKVEIK	band A

q: Please classify: AB435 (antibody, IgG1, V domains shown) VH: QVQLQESGPGLVKPSQTLSLTCTVSGYSLTDARIGVNWIRQPPGKGLEWIGYINPSGRTDYNPSLKSRVTMSVDTSKNQFSLKVNSVTAADTAVYYCARAGYPDVWGKGTTVTVSS VL: EIVMTQSPATLSLSPGERATLSCRASQSIGTKLAWYQQKPGQAPRLLIYDASSRVPGIPARFSGSGSGTDFTLTISSLEPEDFAVYYCQQYGSSPPVYSFGGGTKVEIK
a: band B

q: Which of the defined bands does the recorded fold-change of OD 450 over negative control (BSA) of AB330 (antibody, IgG1, V domains shown, also called mAb 330) VH: QVQLVQSGAEVKKPGASVKVSCKVSGYPSPATISWVRQAPGKGLEWMGWMNPKSGYTNYAQKFQGRVTMTEDTSTDTAYMELSSLKSEDTAVYYCATLHGSGLAFDIWGQGTMVTVSS VL: DIQMTQSPSSVSASVGDRVTITCRASQDIKSDLAWYQQKPGKAPKLLIYRASARESGVPSRFSGSGSGTDFTLTISSLQPEDFANYYCQQYRSFPWSFGGGTKVEIK sit within?
a: band A

q: Into which bin does this binder go? AB357 (antibody, IgG1, V domains shown) VH: EVQLVQSGAEVKKPGASVKVSCKASGYTFPSHYISWVRQAPGQGLEWMGGMNPITGHTIYAQKLQGRGTMTTDPSTSTAYMELRSLRSDDTAVYYCARDMRYDILPGRSYYYGMDVWGQGTTVTVSS VL: ESALTQPASVSGSPGQSITISCTGTDIRGMSVSWYQQHPGKAPKLMIYEVNQRPSGVSNRFSGSKSGNTASLTISGLQAEDEADYYCAAWDASVAGYVFGGGTKLTVL
a: band B

q: Dear colleague, I would appreciate it if you could identify the bin for AB338 (antibody, IgG1, V domains shown) VH: EVQLVESGGGLVQPGGSLRLSCAASGFTASRNYMSWVRQAPGKGLELVASISGSGDYTYYPDSVKGRFTISRDNAKNSLYLQMNSLRAEDTAVYYCARSPRGPRLLGYYYGMDVWGQGTTVTVSS VL: DIVMTQSPLSLPVTPGEPASISCRSSQSLLHSNEKNYLHWYLQKPGQSPQLLIYDASKRASGVPDRFSGSGSGTDFTLKISRVEAEDVGVYYCVQDLHTPFTFGGGTKVEIK and reply at your convenience.
a: band A
